experimental.target: mu (MOP) (h) (Homo sapiens, UniProt P35372)
Construct: CEREP (contract assay)
Sequence (P35372 whole entry): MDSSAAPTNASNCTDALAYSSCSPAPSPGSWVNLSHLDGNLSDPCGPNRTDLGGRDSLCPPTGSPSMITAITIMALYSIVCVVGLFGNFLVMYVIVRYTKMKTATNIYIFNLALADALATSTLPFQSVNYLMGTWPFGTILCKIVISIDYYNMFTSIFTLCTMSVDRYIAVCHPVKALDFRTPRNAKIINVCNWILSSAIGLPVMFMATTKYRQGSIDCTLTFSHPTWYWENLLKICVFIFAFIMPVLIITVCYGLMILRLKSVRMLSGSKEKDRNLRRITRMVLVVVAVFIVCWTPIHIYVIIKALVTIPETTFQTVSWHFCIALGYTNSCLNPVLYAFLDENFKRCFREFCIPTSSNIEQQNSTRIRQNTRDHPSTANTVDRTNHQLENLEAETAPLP
run.description: CEREP panel
Assay type: binding
setup.conditions: 10 µM
measured.attribute: % inhibition mu (MOP) (h) (%)
Answer format: numeric, % implied, no suffix.

Record excerpt, results attached:
In [3]: df
Out[3]:
                                   compound  unit_abbreviation  observed_measurement
0  Cc1c(C(=O)c2cccc3ccccc23)c2cccc3c2n1[C@H](CN1CCOCC1)CO3 [WIN55212-2]                  %                    21
1  Cc1c(C(=O)NN2CCCCC2)nn(-c2ccc(Cl)cc2Cl)c1-c1ccc(I)cc1 [AM251]                  %                    93
2  COc1ccc(C(=O)c2c(C)n(CCN3CCOCC3)c3cc(I)ccc23)cc1 [AM630]                  %                    21

Ask: Give the value of % inhibition mu (MOP) (h) reported for the following: Cc1ccc2c(c1)Cc1c(C(=O)NN3CCCCC3)nn(-c3ccc(Cl)cc3Cl)c1-2 [Gp-1a]
Reply: 102

Ask: In one line, give reported % inhibition mu (MOP) (h) of the entry CN1CCCC[C@H]1Cn1cc(C(=O)c2cc([N+](=O)[O-])ccc2I)c2ccccc21 [(S)-AM1241] .
Reply: 46

Ask: Return the recorded % inhibition mu (MOP) (h) value; entry: CCCn1c(C)c(C(=O)c2cccc3ccccc23)c2ccccc21 [JWH015]
Reply: 7

Ask: Tell us which % inhibition mu (MOP) (h) value is on record for CCCCCCC(C)(C)c1cc(OC)c(C2=C[C@H]3CC[C@]2(CO)C3(C)C)c(OC)c1 [HU910]
Reply: 23

Ask: Supply % inhibition mu (MOP) (h) value. Item: CCCC(C)(C)c1ccc2c(c1)OC(C)(C)[C@@H]1CC=C(C)C[C@@H]21 [JWH133]
Reply: 7
